This collection of values is drawn from the RNAGym collection of RNA variant scans (doi:10.1073/pnas.2313332121).

B1: TPR 5TU (parent)
chain: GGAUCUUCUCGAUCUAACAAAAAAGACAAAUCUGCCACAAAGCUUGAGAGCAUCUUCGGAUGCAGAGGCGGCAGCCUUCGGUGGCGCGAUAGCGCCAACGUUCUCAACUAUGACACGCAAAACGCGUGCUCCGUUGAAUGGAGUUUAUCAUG

Variants of: B1
measurement-protocol: polymerase ribozyme fitness, log enrichment relative to wild type (log ratio); higher = more active; in vitro selection for triplet polymerase activity
Fewer inactive variants are shown than the library holds.
Is polymerase ribozyme fitness (log ratio) at least -3? Then Yes. If not, No.

[[record]]
sequence_change = "U4G A20G C35U G94C A97G C118A A137G A142U"
group = "No"

[[record]]
sequence_change = "G59A G94U C95A U104C"
group = "Yes"

[[record]]
sequence_change = "A40U U56A C75G"
group = "No"

[[record]]
sequence_change = "C27U G34U C93U G112C U148G"
group = "No"

[[record]]
sequence_change = "A29U U53A"
group = "No"

[[record]]
sequence_change = "A12C G92C"
group = "Yes"

[[record]]
sequence_change = "A41C G83U"
group = "Yes"

